Sourced from ChEMBL document CHEMBL1131844

Reported bioavailability values are given for each entry in this list.
assay: Bioavailability in rat; assay type: ADME, organism-based; conditions: in vivo
Give a bare numeral; the unit % is implied.

Example entries and their recorded answers appear below.
> print(dat)
                                   compound  reading
1  Cc1nc(COc2ccc3c(c2)c(SC(C)(C)C)c(CC(C)(C)C(=O)O)n3Cc2ccc(Cl)cc2)cs1       98
2  CC(Oc1ccc2c(c1)c(SC(C)(C)C)c(CC(C)(C)C(=O)O)n2Cc1ccc(Cl)cc1)c1ccc2ccccc2n1 (single isomer, unassigned; (-))       48
3  CC(C)(C)Sc1c(CC(C)(C)C(=O)O)n(Cc2ccc(Cl)cc2)c2ccc(OCc3nc4ccccc4s3)cc12       81

Value of measured bioavailability for the entry CC(C)(C)Sc1c(CC(C)(C)C(=O)O)n(Cc2ccc(Cl)cc2)c2ccc(OCc3ccccn3)cc12 : 48
